So I've got a bunch of compounds here, and I need their inhibition at 10 µM values.
# System: primary human fibroblasts derived from IPF patients (LL29 cells) treated with TGF-β1
# ASSAY_PROCEDURE: Inhibition of fibrotic process, αSMA staining in TGF-β1 treated LL29 fibroblasts
# Format: cell-based
# RUN_CONDITIONS: Fibroblast, at 10 μM, given where EC50 >10 μM, αSMA, LL29 cells, TGF-β1, read-out: percent inhibition at 10 μM
# do not omit the unit; it follows the number

Would you please look over these solved cases?
COMPOUND	inhibition at 10 µM
c1cncc(-c2ccnc3[nH]c(-c4n[nH]c5cnc(-c6cncnc6)cc45)cc23)c1 [Compound 111]	1.4%
Fc1cccc(-c2ccnc3[nH]c(-c4n[nH]c5cnc(-c6cncc(OCc7ccccc7)c6)cc45)cc23)c1 [Compound 518]	27.5%
c1ccc(-c2cc3c(-c4cc5c(-c6ccncc6)ccnc5[nH]4)n[nH]c3cn2)nc1 [Compound 140]	10.5%

Would you kindly look at the next entry?
[ask] Quick one: inhibition at 10 µM for CCNCc1cncc(-c2cc3c(-c4cc5c(-c6ccccc6F)ccnc5[nH]4)n[nH]c3cn2)c1 [Compound 62] ?
[reply] 64.9%

Sourced from patent US10285982B2
